# target.entity: C5AR1 (Homo sapiens, UniProt P21730)
# Sequence (P21730 whole entry): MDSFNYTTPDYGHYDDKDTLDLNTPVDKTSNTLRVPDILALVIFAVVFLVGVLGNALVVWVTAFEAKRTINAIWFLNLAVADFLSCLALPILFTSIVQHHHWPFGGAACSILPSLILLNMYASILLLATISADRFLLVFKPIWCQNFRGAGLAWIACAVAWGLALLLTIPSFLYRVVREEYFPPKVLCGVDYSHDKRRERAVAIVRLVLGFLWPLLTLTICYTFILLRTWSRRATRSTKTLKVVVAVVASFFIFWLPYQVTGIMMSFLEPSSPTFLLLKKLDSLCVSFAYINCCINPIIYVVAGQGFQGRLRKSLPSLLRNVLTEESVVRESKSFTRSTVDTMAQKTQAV
# measurement.notes: hC5a DISCO IC50 assay (PathHunter beta-arrestin, antagonist mode)
# condition.label: CHO-K1 C5AR1 beta-arrestin cell line; antagonist vs 1-10 nM C5a agonist; geometric mean values; read-out: C5aR IC50
measure.name: IC50

Observe how each entry below is paired with its result.
compound | result
COc1ccccc1Cn1c(=O)n([C@@H]2CCN(c3c(C)cccc3C)C2)c2ccnc(OC)c21 [Example 77] | 89 nM
COc1cccc2c1n(Cc1cnccc1C(F)(F)F)c(=O)n2[C@@H]1CCN(c2c(C)cccc2F)C1 [Example 203] | 6 nM
Cc1cccc(C)c1N1CC[C@@H](n2c(=O)n(Cc3ccccc3C(F)(F)F)c3c(OCCO)nccc32)C1 [Example 119] | 12 nM
COc1cccc2c1n(Cc1ccccc1C(F)(F)F)c(=O)n2[C@@H]1CCN(c2c(F)cccc2CN2CCC(OC)CC2)C1 [Example 137] | 133 nM
Cc1cccc(F)c1N1CC[C@@H](n2c(=O)n(Cc3ccccc3C(F)(F)F)c3c(OC4COC4)nccc32)C1 [Example 127] | 17 nM

For every item below, please supply its IC50.
1. COc1cccc2c1n(Cc1ccccc1C(F)(F)F)c(=O)n2[C@H]1CN(c2c(C)cccc2F)C[C@@H]1C (relative stereo) [Example 198]
2. COc1cccc2c1n(Cc1ccccc1C(F)(F)F)c(=O)n2C1CCN(c2c(Cl)c(C3CC3)nn2C)CC1 [Example 24]
3. COc1cccc2c1n(Cc1ccccc1C(F)(F)F)c(=O)n2[C@@H]1CCN(c2ccccc2F)C1 [Example 160]
4. COc1cccc2c1n(Cc1ccccc1C(F)(F)F)c(=O)n2C1CCN(c2ccccc2O)CC1 [Example 230]
5. COc1cccc2c1n(Cc1ccccc1C(F)(F)F)c(=O)n2C1C2CC1CN(C(=O)OC(C)(C)C)C2 (stereo not shown) [Example 191]

## Output
1: 15 nM; 2: 330 nM; 3: 35 nM; 4: 129 nM; 5: 114 nM
